Entry source: ChEMBL document CHEMBL1136314

# test-system: UniProt:P9WNG3
# protocol-details: In vitro inhibitory activity against the recombinant Mycobacterium tuberculosis Beta-ketoacyl-ACP synthase III mtFabH condensing enzyme.
reported-property: pIC50
Numbers only, as −log10 of the molar value.

Item under review: CC1=C(O)C(C)(Cc2ccc(-c3ccc(C(C)(C)C)cc3)cc2)SC1=O (stereo not given) . Reported pIC50?
4.60

Item under review: CC1=C(O)C(C)(Cc2ccc(-c3ccc(C)cc3)cc2)SC1=O (stereo not given) . Reported pIC50?
4.28

Item under review: CC1=C(O)C(C)(Cc2ccc(-c3ccc(COCc4ccccc4)cc3)cc2)SC1=O (stereo not given) . Reported pIC50?
4.77

Item under review: CC1=C(O)C(C)(Cc2cccc(Oc3ccccc3)c2)SC1=O (stereo not given) . Reported pIC50?
4.28

Turning now to a further record.
Item under review: CC1=C(O)C(C)(Cc2cc(F)cc(F)c2)SC1=O (stereo not given) . Reported pIC50?
3.58

---

# test-system: Mycobacterial beta-ketoacyl-[acyl-carrier-protein] synthase III (Mycobacterium tuberculosis, UniProt P9WNG3)
# Sequence (P9WNG3 whole entry): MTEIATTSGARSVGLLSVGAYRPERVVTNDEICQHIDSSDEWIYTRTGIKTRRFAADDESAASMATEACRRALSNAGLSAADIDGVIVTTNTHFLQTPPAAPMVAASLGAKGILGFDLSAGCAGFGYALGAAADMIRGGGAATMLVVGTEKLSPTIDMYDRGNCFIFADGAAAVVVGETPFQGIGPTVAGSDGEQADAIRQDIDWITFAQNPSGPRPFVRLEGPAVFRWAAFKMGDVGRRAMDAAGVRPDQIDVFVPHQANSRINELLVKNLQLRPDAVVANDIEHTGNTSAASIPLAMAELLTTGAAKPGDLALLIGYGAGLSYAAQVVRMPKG
# protocol-details: In vitro inhibitory activity against the recombinant Mycobacterium tuberculosis Beta-ketoacyl-ACP synthase III mtFabH condensing enzyme.
# Set-up: species or system H37Rv
Record form. Attribute: pIC50. Fill in for each entry.
Numbers only, as −log10 of the molar value.

Item under review: COc1ccc(CC2(C)SC(O)=C(C)C2=O)cc1 (configuration not stated) . Reported pIC50?
3.81

Item under review: CC1=C(O)C(C)(Cc2ccc(F)cc2F)SC1=O (configuration not stated) . Reported pIC50?
3.61

Lab note: each molecule below needs its pIC50 filled in.
1. CC1=C(O)C(C)(Cc2ccc(-c3ccccc3)cc2)SC1=O (configuration not stated)
2. CC1=C(O)C(C)(Cc2ccc(I)cc2)SC1=O (configuration not stated)
3. CC1=C(O)C(C)(Cc2ccc(C)cc2)SC1=O (configuration not stated)
4. CC(=O)Nc1cccc(-c2ccc(CC3(C)SC(O)=C(C)C3=O)cc2)c1 (configuration not stated)
5. CC1=C(O)C(C)(Cc2ccc(-c3ccc(CO)cc3)cc2)SC1=O (configuration not stated)
6. CC1=C(O)C(C)(Cc2cccc(-c3ccccc3)c2)SC1=O (configuration not stated)

[4.29, 3.82, 3.95, 3.92, 4.72, 3.67]

Lab note: each molecule below needs its pIC50 filled in.
1. CC1=C(O)C(C)(Cc2ccc(C(C)(C)C)cc2)SC1=O (configuration not stated)
2. CC1=C(O)C(C)(Cc2ccc(-c3ccc(C=O)cc3)cc2)SC1=O (configuration not stated)

1: 4.37; 2: 4.54
